The reported numbers originate from patent US20210230272A1.

Molecular target: human CLDN18.2 (human) (UniProt P56856)
Experiment: cell ELISA, hCLDN18.2+ cells
measuredParameter: Emax
Answers are plain numbers.

Solved entries (count: 2):
Ab28 (antibody, V domains shown) VH: QVQLVQSGAEVKKPGSSVKVSCKASGYAFSNYLIEWVRQAPGQGLEWMGLINPGSGGTNYNEKFKGKVTITADKSTSTAYMELSSLRSEDTAVYYCARVYYGNSFAYWGQGTLVTVSS VL: DIVMTQSPDSLAVSLGERATINCKSSQSLLNTGNNKNYLAWYQQKPGQPPKLLIYWASTRESGVPDRFSGSGSGTDFTLTISSLQAEDVAVYYCQNDYFYPFTFGQGTKLEIK: 1.56
Ab21 (antibody, V domains shown) VH: QVQLVQSGAEVKKPGSSVKVSCKASGYAFSNYLIEWVRQAPGQGLEWMGLINPGSGGTNYNEKFKGKVTITADKSTSTAYMELSSLRSEDTAVYYCARVYYGTSFAYWGQGTLVTVSS VL: DIVMTQSPDSLAVSLGERATINCKSSQSLLTSGNNKNYLAWYQQKPGQPPKLLIYWASTRESGVPDRFSGSGSGTDFTLTISSLQAEDVAVYYCQNDYFYPFTFGQGTKLEIK: 0.145

Here is the next item to consider.
Value lookup for Emax; key = Ab22 (antibody, V domains shown) VH: QVQLVQSGAEVKKPGSSVKVSCKASGYAFSNYLIEWVRQAPGQGLEWMGLINPGSGGTNYNEKFKGKVTITADKSTSTAYMELSSLRSEDTAVYYCARVYYGNTFAYWGQGTLVTVSS VL: DIVMTQSPDSLAVSLGERATINCKSSQSLLTSGNNKNYLAWYQQKPGQPPKLLIYWASTRESGVPDRFSGSGSGTDFTLTISSLQAEDVAVYYCQNDYFYPFTFGQGTKLEIK 0.827
